Cited source for all entries: the supplement of paper PMC6555819

PBM binding z-score listing for selected sequences.
System: RARa homodimer (NR concentration 270 nM)
methodSummary: PBM binding z-score (relative to random genomic background probes); higher = stronger binding; sequences stand for … in GC…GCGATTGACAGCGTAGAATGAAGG

# sequenceCode, PBM binding z-score
measured = [
    ("ATCGAAAGCTCGAAGGTGAGTATACCCACCCGAA", -0.499),
    ("TCTTGTAGATCAGCATGTTAAGAAAGCTGGCCAA", -0.0517),
    ("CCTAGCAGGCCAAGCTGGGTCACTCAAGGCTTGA", -0.984),
    ("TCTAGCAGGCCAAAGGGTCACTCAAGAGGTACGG", 0.234),
]

* * *

System: RARb:RXRa (NR concentration 270 nM, RXRa partner concentration 90 nM)
methodSummary: PBM binding z-score (relative to random genomic background probes); higher = stronger binding; sequences stand for … in GC…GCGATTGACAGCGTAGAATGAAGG
readoutType: PBM binding z-score

# sequenceCode, testedSystem, measuredValue
measured = [
    ("ACAGACAGGTGATGAAGGTAACTGAGGCTATCAT", "RARb:RXRa (NR concentration 270 nM, RXRa partner concentration 90 nM)", 0.369),
    ("AGTCAAACTTCATCTAGGTAACGTAAGATATGCT", "RARb:RXRa (NR concentration 270 nM, RXRa partner concentration 90 nM)", 0.212),
    ("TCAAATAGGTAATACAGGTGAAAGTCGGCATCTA", "RARb:RXRa (NR concentration 270 nM, RXRa partner concentration 90 nM)", 0.777),
    ("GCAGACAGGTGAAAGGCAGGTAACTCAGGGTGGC", "RARb:RXRa (NR concentration 270 nM, RXRa partner concentration 90 nM)", 0.812),
    ("TCTTGTAGATAAATAGAGGTTAAGAAAGTGCGCT", "RARb:RXRa (NR concentration 270 nM, RXRa partner concentration 90 nM)", 0.915),
    ("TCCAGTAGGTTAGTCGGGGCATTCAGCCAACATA", "RARb:RXRa (NR concentration 270 nM, RXRa partner concentration 90 nM)", 0.79),
    ("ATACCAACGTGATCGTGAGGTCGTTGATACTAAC", "RARb:RXRa (NR concentration 270 nM, RXRa partner concentration 90 nM)", 0.259),
    ("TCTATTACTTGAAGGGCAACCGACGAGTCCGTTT", "RARb:RXRa (NR concentration 270 nM, RXRa partner concentration 90 nM)", 1.59),
    ("ATCGAAAGGTCGAGGTGTGTATAGAGAAAGGGAA", "RARb:RXRa (NR concentration 270 nM, RXRa partner concentration 90 nM)", 4.03),
    ("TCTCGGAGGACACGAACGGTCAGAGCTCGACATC", "RARb:RXRa (NR concentration 270 nM, RXRa partner concentration 90 nM)", 2.1),
]

* * *

List of PBM binding z-score values.
Test system: PPARg DBDmut:RXRa IVT, anti-PPARg (DBD mutation: PPARg1 K132A/R137A, NR concentration 270 nM, RXRa partner concentration 90 nM)
methodSummary: PBM binding z-score (relative to random genomic background probes); higher = stronger binding; sequences stand for … in GC…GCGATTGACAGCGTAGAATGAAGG
readoutType: PBM binding z-score

# sequenceCode, readoutType, measuredValue
records = [
    ("TGTAGCAGGCCAGAGGGTCACTCAAGAGGTACGG", "PBM binding z-score", -0.559),
    ("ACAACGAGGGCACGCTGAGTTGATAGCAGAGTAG", "PBM binding z-score", 0.767),
    ("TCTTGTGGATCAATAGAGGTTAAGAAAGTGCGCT", "PBM binding z-score", 0.673),
    ("GCTTGTAGATCAAGGTTAATAAAGACTAAGCTAA", "PBM binding z-score", -0.734),
    ("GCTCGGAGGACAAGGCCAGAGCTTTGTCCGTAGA", "PBM binding z-score", -1.72),
    ("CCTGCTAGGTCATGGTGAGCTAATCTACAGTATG", "PBM binding z-score", 1.17),
    ("ATCGAAAGGTCGAGGCGAGTATAGAGAAAGGGAA", "PBM binding z-score", 0.481),
    ("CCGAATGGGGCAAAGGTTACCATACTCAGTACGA", "PBM binding z-score", 0.22),
    ("ACTACTAGTTGAGACGAGGGCAACCGATAGGTTG", "PBM binding z-score", 0.298),
    ("CGAACTAGGTCAGAACAGAACAGTGAAGGATGAT", "PBM binding z-score", 1.34),
    ("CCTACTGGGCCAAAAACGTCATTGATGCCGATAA", "PBM binding z-score", -0.472),
    ("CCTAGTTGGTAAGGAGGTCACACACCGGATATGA", "PBM binding z-score", 0.9),
    ("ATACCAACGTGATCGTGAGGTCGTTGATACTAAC", "PBM binding z-score", 0.725),
    ("TCAGACAGGTGAAGGTAACTCCGGTACGCAGTCG", "PBM binding z-score", -0.276),
    ("CCTTACGGGCCACTCCAGGTTATAGCATCGGAGT", "PBM binding z-score", -1.12),
    ("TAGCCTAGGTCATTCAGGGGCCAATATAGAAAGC", "PBM binding z-score", 0.373),
    ("GCTTGTAGATCAAGGTTAAAAAAGACTAAGCTAA", "PBM binding z-score", 0.281),
    ("TCTATTAGTTGATTAGGGCAAACGAAACAGCGGA", "PBM binding z-score", 0.889),
    ("TATACCGGGTCAAAGGCCAGAGTACGAATGTCGA", "PBM binding z-score", 0.885),
    ("AGTCAAAGTTCATCCAGGTAACGTAAGATATGCT", "PBM binding z-score", 1.21),
    ("CGAACTAGGTCATTGACAGGACACTGAATAGTAA", "PBM binding z-score", 2),
    ("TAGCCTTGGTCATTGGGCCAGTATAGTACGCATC", "PBM binding z-score", -0.509),
    ("CCTAGCAGGCCAGGGTCACTCTAGCATTTCGCTT", "PBM binding z-score", -1.19),
    ("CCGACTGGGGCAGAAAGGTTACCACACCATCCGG", "PBM binding z-score", -0.724),
]

* * *

System: PPARg:RXRa 270nM:90nM, anti-RXR (NR concentration 270 nM, RXRa partner concentration 90 nM)
methodSummary: PBM binding z-score (relative to random genomic background probes); higher = stronger binding; sequences stand for … in GC…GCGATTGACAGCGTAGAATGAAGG
readoutType: PBM binding z-score

# sequenceCode, measuredValue
data = [
    ("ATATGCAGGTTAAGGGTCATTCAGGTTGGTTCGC", 7.85),
    ("CGTCCAAGGCCAGAGAGGTCAGTGAATGCCGAGT", 0.653),
    ("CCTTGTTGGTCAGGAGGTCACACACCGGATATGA", 3.8),
    ("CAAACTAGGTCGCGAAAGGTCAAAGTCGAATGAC", 6.66),
    ("CCAGCTAGGTCATGGTCAGCTAATCTACAGTATG", 3.29),
    ("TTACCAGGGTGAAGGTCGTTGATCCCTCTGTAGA", 6.39),
    ("ACTAGCAGGCCAAGGGTCACTAAAGATTAGTCCG", 7.21),
    ("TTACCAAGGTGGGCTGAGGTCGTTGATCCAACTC", 0.212),
    ("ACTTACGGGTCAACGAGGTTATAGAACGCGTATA", 5.55),
    ("CAAACTAGGCCAAAGGTCAAAGTCGAGCCAACCA", 10.6),
    ("CCTACTGGGCCACGAAAGGTCATTTATTCAGTGA", 4.66),
    ("GCTAGCTGGCCATTTGGGTCACTCAATGACGGGC", -0.0931),
    ("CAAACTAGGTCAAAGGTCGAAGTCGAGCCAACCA", 11.2),
    ("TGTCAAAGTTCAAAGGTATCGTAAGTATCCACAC", 7.23),
    ("AGCTCTAGGTAACAAGTTCAGTGAAAGAGAGGAC", 1.92),
    ("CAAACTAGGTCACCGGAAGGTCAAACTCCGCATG", 7.8),
    ("AGAATGAGGTTAAGATCAGGGACACAGAATACAT", 2.39),
    ("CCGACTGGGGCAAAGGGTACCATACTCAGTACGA", 7.63),
    ("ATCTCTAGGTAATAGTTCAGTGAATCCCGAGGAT", 6.33),
    ("AATACAGGGTCATCGCAGGCCAGAGTACGCACAG", 6.2),
    ("CATACAGGGTCAGCGAGGCCAGAGTAGGGACGGC", 3.65),
    ("TCTGGTAGATCAACAGGAGGTTAAGAAAGATCGA", 1.19),
    ("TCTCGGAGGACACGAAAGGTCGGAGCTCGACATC", 1.36),
    ("TCATATAGGAAATACAGGTGAAAGTCGGCATCTA", 2.77),
    ("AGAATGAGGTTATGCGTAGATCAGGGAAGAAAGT", 2),
    ("CCTACTGGGCCATCAGGTCATAGATATCAACGTT", 3.9),
]
